Provenance of the data: patent US20210261671A1

# test-target: T1, human FLT3 protein (human, UniProt P36888 27-541, limits assumed)
# T1 construct: protein coated in the screening ELISA; also called ELISA FLT3
# protocol: colorimetric ELISA, signal over control wells lacking FLT3
measured-quantity: FLT3/control (ratio)

FLL40 (VHH, llama anti-FLT3 variable domain; E. coli periplasmic extract) VHH: QVQLQESGGGLVQAGGSLRLSCAVSGRTFSGFGTGWFRQAPGKEREFVAAISWSGGTTHYADSVKGRFTISRDNAKNTVSLVYLQMNSLKPDDTAVYYCAGQVARAYDSSWYSRGDYLGQGTQVTVSS | 21
FLL125 (VHH, llama anti-FLT3 variable domain; E. coli periplasmic extract) VHH: QVQLQESGGGLVQAGGSLRLSCAASGSTFSRNYIDWYRQAPGKQREWVAQITSGGNTHYEPSLKGRFTISRDNAKNTAYLQMNSLKPEDTAVYYCRILDYWGQGTQVTVSS | 17

[1] FLL51 (VHH, llama anti-FLT3 variable domain; E. coli periplasmic extract) VHH: QVQLQESGGGLVQPGGSLRLSCAASGFDFSISYIDWYRQAPGNEREWVAQITRGGDSFYADSVKGRFAISRDNAKNTVYLQMNSLKPEDTAVYYCRILSYWGQGTQVTVSS
[2] FLL103 (VHH, llama anti-FLT3 variable domain; E. coli periplasmic extract) VHH: QVQLQESGGGLVQAGGSLRLSCEASGPTFSINYIDWYRQAPGKQREWVAQITRDSNSFYADSVKGRFAVSRDNAKNTVYLQMNSLKPEDTAVYYCRVLSYWGQGTQVTVSS
Which one would you say has the larger FLT3/control value: 1 , or 2 ? Reply briefly: the label of your chosen item.
2
(2: 28 ratio, 1: 16 ratio)
